Cited source for all entries: patent US8293513B2

# System name: HeLa nuclear extracts (histone deacetylase)
# Assay type: biochemical
# Applied conditions: pan-HDAC inhibition assay, HeLa nuclear extracts (Table 2); read-out: HDAC IC50
Parameter: IC50. Scope: all listed entries.
All answers are understood in nM, so give the number only.

# count of solved cases: 3
CN(C)c1cccc2c(S(=O)(=O)NCCCCC(=O)NO)cccc12 [Example 2] = 287
CN(C)c1cccc2c(S(=O)(=O)NCCCCCC(=O)NO)cccc12 [Example 1] = 125
CN(C)c1cccc2c(S(=O)(=O)NCCCCCCC(=O)NO)cccc12 [Example 3] = 116

Let's switch to this compound now.
Item under review: CN(C)c1cccc2c(S(=O)(=O)NCCCCCCCC(=O)NO)cccc12 [Example 4] . Reported IC50?
208

====

# Test system: MDA-231 (breast cancer)
# Assay details: Cell growth inhibition (CellTiter 96 AQueous One, MTS)
# Format: cell-based
# Applied conditions: Homo sapiens, MDA-MB-231; MDA-231 cells, 48 hours; read-out: Proliferation IG50 MDA-231
Value type: IC50 (nM)
State just the number; it will be interpreted in nM.

What value of measured IC50 is listed for "CN(C)c1cccc2c(S(=O)(=O)NCCCCCC(=O)NO)cccc12" ?
12.2

====

# System name: UniProtKB Q92769
# Sequence (Q92769 whole entry, species assumed, canonical isoform): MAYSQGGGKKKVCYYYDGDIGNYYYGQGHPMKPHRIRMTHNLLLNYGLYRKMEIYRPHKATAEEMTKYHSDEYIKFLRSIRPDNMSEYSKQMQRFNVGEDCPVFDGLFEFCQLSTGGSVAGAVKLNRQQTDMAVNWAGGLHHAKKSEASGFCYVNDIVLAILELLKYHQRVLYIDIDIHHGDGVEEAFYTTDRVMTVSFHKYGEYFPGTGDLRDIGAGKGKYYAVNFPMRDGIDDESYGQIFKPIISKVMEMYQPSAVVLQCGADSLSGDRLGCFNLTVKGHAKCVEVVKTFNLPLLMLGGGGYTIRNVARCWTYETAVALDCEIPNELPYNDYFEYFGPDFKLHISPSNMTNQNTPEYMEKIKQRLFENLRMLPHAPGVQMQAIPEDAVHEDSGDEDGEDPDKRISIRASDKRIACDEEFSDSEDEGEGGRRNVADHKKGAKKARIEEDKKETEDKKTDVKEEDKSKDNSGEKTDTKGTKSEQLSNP
# Assay details: HDAC isoform inhibition assay (Fluor de Lys, purified protein)
# Type: biochemical
Value type: pIC50
The quantity pIC50 is defined as the negative base-10 logarithm of the molar concentration.

CN(C)c1cccc2c(S(=O)(=O)NCCCCCC(=O)NO)cccc12 = 5.86

Okay, now this compound:
Request the reported pIC50 associated with "CN(C)c1cccc2c(S(=O)(=O)NCCCCCCC(=O)NO)cccc12"
5.13

====

# System name: HeLa nuclear extracts (histone deacetylase)
# Format: biochemical
# Applied conditions: pan-HDAC inhibition assay, HeLa nuclear extracts (Table 3); read-out: pan-HDAC IC50
The entries below come with measured IC50 values attached.

CN(C)c1cccc2c(S(=O)(=O)NCCCCCCC(=O)NO)cccc12 = 116 nM

# context switch: different compound, same IC50
Quick one: IC50 of "CN(C)c1cccc2c(S(=O)(=O)NCCCCCC(=O)NO)cccc12" ?
125 nM

====

# System name: HDAC1 (Homo sapiens, UniProt Q13547)
# Sequence (Q13547 whole entry, species assumed, canonical isoform): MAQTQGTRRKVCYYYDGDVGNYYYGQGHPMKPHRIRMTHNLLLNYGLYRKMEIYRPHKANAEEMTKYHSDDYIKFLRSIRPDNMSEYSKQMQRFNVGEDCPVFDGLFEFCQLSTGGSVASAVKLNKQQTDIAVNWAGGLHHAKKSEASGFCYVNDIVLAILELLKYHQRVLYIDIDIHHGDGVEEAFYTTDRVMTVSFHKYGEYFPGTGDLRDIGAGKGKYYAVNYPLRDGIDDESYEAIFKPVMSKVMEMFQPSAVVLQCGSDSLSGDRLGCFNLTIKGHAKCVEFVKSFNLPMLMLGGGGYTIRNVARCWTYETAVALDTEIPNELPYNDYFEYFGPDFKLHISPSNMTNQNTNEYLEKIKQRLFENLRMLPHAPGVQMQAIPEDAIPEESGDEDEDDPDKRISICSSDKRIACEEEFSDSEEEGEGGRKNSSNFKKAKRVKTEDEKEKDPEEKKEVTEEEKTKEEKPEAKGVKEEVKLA
# Assay details: HDAC isoform inhibition assay (Fluor de Lys, purified protein)
Value type: pIC50
Field pIC50 (float): negative decimal logarithm of the concentration in molar.

CN(C)c1cccc2c(S(=O)(=O)NCCCCCC(=O)NO)cccc12 [Example 1] = 6.02

Now look at this one.
State the recorded pIC50 for this entry: CN(C)c1cccc2c(S(=O)(=O)NCCCCCCC(=O)NO)cccc12 [Example 3]
5.89

====

# Tested on: LNCap (androgen-dependent prostate cancer)
# Assay details: Cell growth inhibition (CellTiter 96 AQueous One, MTS)
# Format: cell-based
# Applied conditions: Homo sapiens; LNCap cells, 48 hours; read-out: Proliferation IG50 LNCap
Value type: pIC50
// pIC50: -log10(molar conc.)

Please report the recorded pIC50 for CN(C)c1cccc2c(S(=O)(=O)NCCCCCC(=O)NO)cccc12 [Example 1] .
8.91

====

# System name: HDAC8 (Homo sapiens, UniProt Q9BY41)
# Sequence (Q9BY41 1-377): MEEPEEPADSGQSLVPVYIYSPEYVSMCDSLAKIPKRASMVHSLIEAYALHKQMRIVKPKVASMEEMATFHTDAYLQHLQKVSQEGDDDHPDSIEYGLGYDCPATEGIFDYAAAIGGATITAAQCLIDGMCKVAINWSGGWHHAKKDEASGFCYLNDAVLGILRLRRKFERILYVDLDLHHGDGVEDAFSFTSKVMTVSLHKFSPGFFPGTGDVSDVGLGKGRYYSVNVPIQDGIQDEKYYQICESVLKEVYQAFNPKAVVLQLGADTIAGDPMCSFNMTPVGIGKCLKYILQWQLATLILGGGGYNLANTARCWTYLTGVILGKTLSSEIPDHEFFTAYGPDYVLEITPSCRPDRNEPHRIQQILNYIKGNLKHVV
Value type: IC50 (nM)
Kindly provide the numeric value in nM only, without the unit symbol.

Hello, I am looking for reported IC50 with HDAC8 (Homo sapiens, UniProt Q9BY41) for CN(C)c1cccc2c(S(=O)(=O)NCCCCCC(=O)NO)cccc12 [Example 1] . Could you help?
2900
